TESTED_TARGET: Calcium-dependent protein kinase 1 (Plasmodium falciparum (isolate 3D7))
EXPERIMENTAL_PROTOCOL: PfCDPK1 kinase inhibitors, biochemical, TCAMS library (AID 1159585);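 also: inhibitors leave more ATP so luminescence rises with inhibition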
EXPERIMENTAL_CONDITIONS: recombinant PfCDPK1, Kinase-Glo ATP depletion luminescence
Entries with a potency or affinity are not part of this list. Activity calls are given as the source filed them. The limit is not given here; nearly all actives have IC50 up to about 0.98 µM.
EXPERIMENTAL_ENDPOINT: outcome

>>> measured("CC(C)Cc1cnc2nc(N)nc(N)c2c1")
"inactive"
>>> measured("CC(C)NCc1cccc(-c2ccc(NS(=O)(=O)c3cccc4cccnc34)cc2)c1")
"inactive"
>>> measured("CCCN1CC[C@@H](CCCc2ccnc3ccc(O)cc23)[C@@H](CC)C1")
"inactive"
>>> measured("CN1CCCN(Cc2cccc(-c3cccc(NC(=O)c4cccc(C#N)c4)c3)c2)CC1")
"inactive"
>>> measured("CC(C)(C)c1ccc(CNC(=O)c2cc(CNC3CCC(N)CC3)ccc2O)cc1 (stereo not given)")
"inactive"
>>> measured("Nc1nc(N)c2c(ccn2Cc2cc3c(cc2Cl)OCO3)n1")
"inactive"
>>> measured("Cc1cc(OCC(=O)Nc2ccc(-c3nc4ccccc4[nH]3)cc2)cc(C)c1Cl")
"inactive"
>>> measured("O=C(Nc1ccc(Cn2ncc(N3CCCNCC3)c(Cl)c2=O)cc1)Nc1ccc(OCc2ccccc2)cc1")
"inactive"
>>> measured("CS(=O)(=O)Nc1ccc(OCCCCCCOc2ccc(NS(C)(=O)=O)cc2)cc1")
"inactive"
>>> measured("CCc1[nH]nc(C(=O)Nc2cccc(N3CCCC3)c2)c1C")
"inactive"

---

EXPERIMENTAL_PROTOCOL: inhibition of 3D7 malaria parasite growth – strain 3D7 (AID 2306);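 also: 0% = DMSO wells and 100% = chloroquine plus artemisinin control wells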
EXPERIMENTAL_CONDITIONS: P. falciparum 3D7 erythrocytic growth, LDH absorbance, 72 h; at 2 µM; stronger effect = higher value
EXPERIMENTAL_ENDPOINT: growth inhibition (%)

>>> measured("CCc1cc(Cc2cnc(N)nc2N)cc(CC)c1OC")
90
>>> measured("CCNC(=O)N[C@@H]1CN[C@@H](C#Cc2cc3c(Nc4ccc(OCc5cccc(F)c5)c(Cl)c4)ncnc3s2)C1")
85
>>> measured("O=C(NC1CCN(Cc2cccc(C(F)(F)F)c2)CC1)c1ccc(-c2cccc(Cl)c2)s1")
89
>>> measured("Cc1c(S(=O)(=O)Nc2ccc3nccc(N4CCN[C@H](C)C4)c3c2)sc2ccc(Cl)cc12")
96
>>> measured("CO/C(=C\\C=C\\c1cc2cc(Cl)c(Cl)cc2[nH]1)C(=O)NCCCN1CCN(c2cccc(Cl)c2)CC1")
100
>>> measured("O=C(/C=C/c1ccc(Cl)cc1)NCCCCCN1CCCC(C(=O)Nc2ccc(Cl)cc2)C1 (stereo not given)")
94
>>> measured("O=[N+]([O-])c1cc(C=NNc2nc3nonc3nc2Nc2ccc(F)cc2)c(Cl)cc1Cl")
98
>>> measured("Cc1cccc2[nH]c(-c3cccc(-c4cccc(NC(=O)c5ccncc5)c4)c3)nc12")
100
>>> measured("Fc1ccc2[nH]c3c(NCCCN4CCOCC4)ncnc3c2c1")
98
>>> measured("O=C(Nc1ccc(S(=O)(=O)N2CCCCC2)cc1)c1cc(-c2ccccc2O)n[nH]1")
94
>>> measured("COc1cccc(C2CCN(CCN3CCC(CNC(=O)c4ccc(-c5ccc(C(F)(F)F)cc5)cc4)CC3)CC2)c1")
100
>>> measured("COc1cccc(CC(=O)N2CCC(n3c(C)nc4ccc(C)cc43)CC2)c1")
100
>>> measured("O=C(O)c1cccc2c(-c3ccncc3)cccc12")
97
>>> measured("CCCNS(=O)(=O)c1ccc(NC(=O)C(C)Oc2ccc([N+](=O)[O-])cc2)cc1 (stereo not given)")
100
>>> measured("CS(=O)(=O)CCNCc1ccc(-c2ccc3c(Nc4ccc(F)cc4Cl)ccnc3c2)o1")
100
>>> measured("C=CCc1cc(C2CCN(CCCCNC(=O)c3ccc(-c4ccc(C#N)cc4)cc3)CC2)c(OCC(N)=O)c2c1CCCC2")
101
>>> measured("c1cc(C2=N[C@H]3CCCC[C@@H]3N2)ccc1OCCCOc1ccc(C2=N[C@@H]3CCCC[C@H]3N2)cc1")
99
>>> measured("COc1ccc(OCCCON)cc1")
98
>>> measured("CCOC(=O)N1CCN(C(=O)Nc2ccc(Cl)cc2)CC1")
92
>>> measured("COc1ccc(-c2nc(NC(=O)CS(=O)(=O)c3ccc(F)cc3)sc2C)cc1")
100
>>> measured("Oc1ccc(C2CNCCc3c2cc(O)c(OCc2ccccc2)c3Cl)cc1 (stereo not given)")
98
>>> measured("c1ccc(Oc2ccc(Nc3ccnc4ccc(-c5ccco5)cc34)cc2)cc1")
87
>>> measured("COc1cc(NCC(CN)Cc2ccc3c(c2)OCO3)nc2ccccc12 (stereo not given)")
94
>>> measured("Cc1cccc(C(=O)Nc2ccnc(N(C)CCCN(C)Cc3cccc(O)c3)c2)c1")
94
>>> measured("COc1ccccc1CCNc1nc(C)cc(N[C@@H](CC(C)C)C(=O)NCCc2ccccc2)n1")
97
>>> measured("Nc1nccc2ccc(-c3cccc(OCc4ccccc4)c3)cc12")
101
>>> measured("NCC1CCCN1Cc1ccc(-c2cccc(-c3nc4ccc(F)cc4[nH]3)c2)cc1 (stereo not given)")
100
>>> measured("c1cc(CN2CCC(CCN3CCCCC3)CC2)cc(-c2cccc(-c3nc4ccccc4[nH]3)c2)c1")
100
>>> measured("NC1CCN(CCc2ccc(NS(=O)(=O)c3ccc(-c4ccccc4)cc3)cc2)CC1")
100
>>> measured("CCCCC(=O)Nc1nonc1-c1ccc(OCC)c(OCC)c1")
101
>>> measured("CN(C)CCCc1cc(NC(=O)Nc2cccc(Cl)c2Cl)ccc1I")
102
>>> measured("CCCNCc1ccc(-c2ccc(CN(C(=O)c3nn(-c4ccccc4)nc3C)C(C)CN(C)C)cc2)nc1 (stereo not given)")
95
>>> measured("O=C(NC1CC1)c1cnc(N2CCC(c3ccccc3)CC2)c(Cl)c1")
94
>>> measured("CCNc1cc(C)nc(Nc2ccc(NC(=O)c3c(F)cccc3Cl)cc2)n1")
102
>>> measured("COc1ccc(OC)c(NC(=O)C2c3ccccc3C(=O)N(CC(C)C)C2c2cccs2)c1 (stereo not given)")
100
>>> measured("Oc1ccc(CCCNc2nc(NCc3cccc4ccccc34)nc(N3CCNCC3)n2)cc1")
100
>>> measured("O=c1[nH]c(NCCCNCc2cc3c(Cl)cc(Cl)cc3[nH]2)nc2ccccc12")
91
>>> measured("N#Cc1ccc2c(c1)CCN(CCC1CCC(NC(=O)Nc3cnc4ccccc4c3)CC1)C2 (stereo not given)")
93
>>> measured("Cc1ccoc1C(=O)Nc1ccc(-c2cccc(-c3nc4c(C)cccc4[nH]3)c2)cc1")
95
>>> measured("Cc1ccc2[nH]c(-c3ccc(/C=C/C(=O)NC4CCN(Cc5ccccc5)CC4)cc3)nc2c1C")
101

---

TESTED_TARGET: Protein kinase 7 (PK7), Plasmodium falciparum 3D7 (PF3D7_0213400) (UniProt Q7YTF7)
EXPERIMENTAL_PROTOCOL: inhibition of Plasmodium PK7 catalytic activity – biochemical, TCAMS antimalarial set, Kinase-Glo luminescence (AID 1159587)
EXPERIMENTAL_CONDITIONS: recombinant PfPK7, Kinase-Glo ATP depletion luminescence
Activity calls are given as the source filed them. How the calls were made is not given here.
EXPERIMENTAL_ENDPOINT: outcome

>>> measured("COc1ccc(OC)c(NC(=O)CSc2nc(-c3ccccc3Cl)ns2)c1")
"inactive"
>>> measured("Cc1[nH]nc2cc(F)c(-c3cc(OC[C@@H](N)Cc4ccccc4)cnc3-c3ccoc3)cc12")
"inactive"
>>> measured("NCCCN(Cc1ccc(Cl)c(Cl)c1)C(=O)Nc1ccc(Cl)c(Cl)c1")
"inactive"
>>> measured("CN(CCNCc1ccc(-c2cccc(-c3nc4ccccc4[nH]3)c2)cc1)S(C)(=O)=O")
"inactive"
>>> measured("CC1(C)CNCc2cc(NC(=O)/C=C/c3ccc(Cl)cc3)ccc21")
"inactive"

---

// values below are reported inhibition
EXPERIMENTAL_PROTOCOL: HepG2 cytotoxicity, primary screen, cytotoxicity control for P. falciparum antimalarial project, cell-based, ATP luminescence (AID 2303);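 also: 0% = DMSO wells and 100% = digitonin-killed cells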
EXPERIMENTAL_CONDITIONS: HepG2 viability, 24-48 h, at 10 µM, stronger effect = higher value
Active and inactive are the calls of the source.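 Rule for the calls: active = inhibition above 50%; inactive = the rest.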
EXPERIMENTAL_ENDPOINT: inhibition

>>> measured("Cc1noc(-c2ccccc2)c1CN1CCCC2(CC(C(=O)NCc3cccc(F)c3F)=NO2)C1 (stereo not given)")
"-1% (inactive)"
>>> measured("CN1CCc2cc(I)c(O)cc2C1Cc1ccccc1Cl (stereo not given)")
"-7% (inactive)"
>>> measured("Cc1ccc(O)cc1Nc1ccnc2cc(-c3nccs3)ccc12")
"63% (active)"
>>> measured("CN1CCN(CCCN(Cc2csc(-c3ccc(CNCc4ccccc4)cc3)n2)S(=O)(=O)c2ccccc2Cl)CC1")
"13% (inactive)"
>>> measured("O=C(Nc1cc(C(F)(F)F)cc(C(F)(F)F)c1)N1CCC(CCN2CCC(c3c[nH]c4ccccc34)CC2)CC1")
"17% (inactive)"
